Compiled notes: published log10 IC50 values involving human ACC2 (Homo sapiens (Human)).
Please interpret these as log10 of IC50 where IC50 is in nM.

Examples with answers:
INSERT INTO measurements (compound, measured_metric, recorded_number) VALUES
  ('CCCOc1cc(N2CC[C@@H](Oc3ccc([C@H](C)NC(=O)C4CC4)cc3)C2)ccn1', 'log10 IC50', 2.59),
  ('CCNC(=O)C(C)c1ccc(C#Cc2ccc(OC3CCCC3)nc2)cc1 (centres unmarked)', 'log10 IC50', 2.34),
  ('CCCOc1ncc(C#Cc2ccc(CC(C)NC(=O)C3CC3)cc2)cn1 (centres unmarked)', 'log10 IC50', 3.04);

Consider the compound COC(=O)NC(C)Cc1ccc(C#Cc2cnc(NC3CC3)nc2)cc1 (centres unmarked) and give its recorded log10 IC50. 3.20

# return recorded log10 IC50 for input `CC(=O)N[C@@H](C)c1ccc(O[C@@H]2CCN(c3ccnc(OCC4CC4)c3Cl)C2)cc1` 1.54

For CC(=O)NC(C)Cc1ccc(C#Cc2cnc(OCc3cc(C)on3)nc2)cc1 (centres unmarked) , write its log10 IC50. 3.40

Recall and state the measured log10 IC50 for CCNC(=O)C(C)c1ccc(O[C@@H]2CCN(c3ccnc(N(C)C4CC4)n3)C2)cc1 (some centres unmarked) . 2.76

###

Several publications report pIC50 on human ACC2 (Homo sapiens (Human), UniProt O00763); those values are gathered here.
pIC50 here: minus log base 10 of the concentration, concentration in moles per litre.

GET pIC50 | system: human ACC2 (Homo sapiens (Human), UniProt O00763) | item: `C[C@H](NC(=O)C1CC1)c1ccc(CN2CCc3cc(OCC4CC(F)(F)C4)ccc3C2)cc1` 7.42

Answer with pIC50 of `COc1c(N2CC[C@@H](Oc3ccc([C@H](C)NC(C)=O)cc3)C2)ccnc1N1CCCC1` measured for human ACC2 (Homo sapiens (Human), UniProt O00763). 6.32

State the measured pIC50 (human ACC2 (Homo sapiens (Human), UniProt O00763)) of CC(Cc1ccc(C#Cc2cnc(NCc3ccncc3)nc2)cc1)NC(=O)C1CC1 (centres unmarked) 5.59

Provide the reported pIC50 (system: human ACC2 (Homo sapiens (Human), UniProt O00763)) for CCCOc1ccc(C#Cc2ccc(CC(C)NC(C)=O)cc2)cc1 (centres unmarked) 7.15

Identify measured pIC50 obtained with human ACC2 (Homo sapiens (Human), UniProt O00763) for COCC1CCC2(CC1)OC(=O)C(c1cc(-c3ccc(Cl)cc3)ccc1C)=C2O (centres unmarked) . 5.71

# return pIC50 for `CC(=O)N[C@@H](C)c1ccc(O[C@@H]2CCN(c3ccnc(OCC(F)F)c3F)C2)cc1` , test system: human ACC2 (Homo sapiens (Human), UniProt O00763) 7.21

Output reported pIC50 of the compound CC(C)Oc1cc(N2CCC(Oc3ccc([C@H](C)NC(=O)C4(C#N)CC4)cc3)C2)ccn1 (some centres unmarked) on human ACC2 (Homo sapiens (Human), UniProt O00763). 6.24

Enter measured pIC50, system human ACC2 (Homo sapiens (Human), UniProt O00763), for the compound shown: CC(=O)N[C@@H](C)c1ccc(OC2CCN(c3ccc(OC(C)C)cc3)C2)cc1 (some centres unmarked) 6.67

Specify pIC50 for CCNC(=O)C(C)c1ccc(C#Cc2cnc(N3CCCCC3)nc2)cc1 (centres unmarked) , system human ACC2 (Homo sapiens (Human), UniProt O00763). 5.82

Give pIC50 for CC(=O)NC(C)Cc1ccc(C#Cc2cnc(NCc3ncccn3)nc2)cc1 (centres unmarked) tested on human ACC2 (Homo sapiens (Human), UniProt O00763). 5.17

Recall the reported pIC50 of C[C@H](NC(=O)N(C)C)c1ccc(OC2CCN(c3ncc(OCC4CC4(F)F)cc3F)C2)cc1 (some centres unmarked) when tested on human ACC2 (Homo sapiens (Human), UniProt O00763). 6.81

Find the measured pIC50 of CCCn1ccc(C#Cc2ccc(CC(C)NC(C)=O)cc2)cc1=O (centres unmarked) with human ACC2 (Homo sapiens (Human), UniProt O00763) as test system. 5.39

Quote pIC50 with test system human ACC2 (Homo sapiens (Human), UniProt O00763) for CCNC(=O)C(C)c1ccc(C#Cc2cccc(OCc3ccccc3)c2)cc1 (centres unmarked) 6.42
